Tested on: Wistar rats
Assay: Evaluation of diuretic action
Type: in vivo, rat (male Wistar)
Conditions: sc, read-out: ED500, diuretic action (dose giving urine output of 500, non-dosed group = 100); rat, s.c.; urine output for 5 h after 20 ml/kg saline oral
Exercise: state measured ED500 for each of the compounds provided.

Prompt: Read off the recorded ED500 for CN(C(=O)/C=C/c1ccccc1)[C@H]1CC[C@@]2(O)[C@H]3Cc4ccc(O)c5c4[C@@]2(CCN3CC2CC2)[C@H]1O5
Response: 0.0063 mg/kg

Prompt: Read off the recorded ED500 for CN(C(=O)Cc1ccc(F)c(F)c1)[C@H]1CC[C@@]2(O)[C@H]3Cc4ccc(O)c5c4[C@@]2(CCN3CC2CC2)[C@H]1O5
Response: 3.3 mg/kg

Prompt: Read off the recorded ED500 for CN(C(=O)/C=C/c1ccsc1)[C@H]1CC[C@@]2(O)[C@H]3Cc4ccc(O)c5c4[C@@]2(CCN3CC2CC2)[C@H]1O5
Response: 0.96 mg/kg

Prompt: Read off the recorded ED500 for CN(C(=O)Cc1csc2ccccc12)[C@H]1CC[C@@]2(O)[C@H]3Cc4ccc(O)c5c4[C@@]2(CCN3CC2CC2)[C@H]1O5
Response: 0.2 mg/kg

Prompt: Read off the recorded ED500 for CN(C(=O)OCc1ccccc1)[C@H]1CC[C@@]2(O)[C@H]3Cc4ccc(O)c5c4[C@@]2(CCN3CC2CC2)[C@H]1O5
Response: 0.0061 mg/kg

Prompt: Read off the recorded ED500 for CN(C(=O)CCc1ccccc1)[C@H]1CC[C@@]2(O)[C@H]3Cc4ccc(O)c5c4[C@@]2(CCN3CC2CC2)[C@H]1O5
Response: 0.017 mg/kg

Prompt: Read off the recorded ED500 for CN(C(=O)OCc1ccc([N+](=O)[O-])cc1)[C@H]1CC[C@@]2(O)[C@H]3Cc4ccc(O)c5c4[C@@]2(CCN3CC2CC2)[C@H]1O5
Response: 0.0044 mg/kg

---

Molecular target: μ receptor (Mus musculus)
Construct: The isolated vas deference was filled with Krebes-Henseleit solution; from tissue; host or cells: isolated vas deferens of male ddy mouse
Sequence (P42866 whole entry): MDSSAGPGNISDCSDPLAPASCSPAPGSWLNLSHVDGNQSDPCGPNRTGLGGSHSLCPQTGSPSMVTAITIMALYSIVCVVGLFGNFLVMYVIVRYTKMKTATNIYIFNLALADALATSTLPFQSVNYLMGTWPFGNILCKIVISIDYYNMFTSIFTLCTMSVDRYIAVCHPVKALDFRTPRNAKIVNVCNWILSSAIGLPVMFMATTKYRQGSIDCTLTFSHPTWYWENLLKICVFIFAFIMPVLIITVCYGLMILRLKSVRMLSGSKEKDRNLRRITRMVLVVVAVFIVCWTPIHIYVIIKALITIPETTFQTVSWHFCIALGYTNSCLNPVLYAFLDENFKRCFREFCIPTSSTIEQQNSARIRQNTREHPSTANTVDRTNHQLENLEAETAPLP
Assay: Ke with naloxone in isolated mouse vas deference preparation
Type: cell-based, mouse (male ddy)
Procedure: A male ddy mouse was used in this test. […] Tissue contractions were recorded on a polygraph using an isometric transducer. Then after adequately washing with nutrient solution and the contraction reaction stabilized, naloxone, a μ […], NTI, a δ […], or norBNI, a κ […], were added and the test compound was again cumulatively added after roughly 20 minutes. The Ke value was calculated using the following calculation formula from the difference in the efficacies of both agonists. […]
Mark False for Ke Naloxone values under 200 nM, and True for everything at or above.

Prompt: Given CCC/C=C/C(=O)N(C)[C@@H]1CC[C@@]2(O)[C@H]3Cc4ccc(O)c5c4[C@@]2(CCN3CC2CC2)[C@H]1O5 , state whether its Ke Naloxone is at least 200 nM.
Response: True

Prompt: Given COc1cccc(/C=C/C(=O)N(C)[C@@H]2CC[C@@]3(O)[C@H]4Cc5ccc(O)c6c5[C@@]3(CCN4CC3CC3)[C@H]2O6)c1 , state whether its Ke Naloxone is at least 200 nM.
Response: False

Prompt: Given CCCCOC(=O)N(C)[C@H]1CC[C@@]2(O)[C@H]3Cc4ccc(O)c5c4[C@@]2(CCN3CC2CC2)[C@H]1O5 , state whether its Ke Naloxone is at least 200 nM.
Response: False

Prompt: Given CN(C(=O)CSc1ccccc1)[C@H]1CC[C@@]2(O)[C@H]3Cc4ccc(O)c5c4[C@@]2(CCN3CC2CC2)[C@H]1O5 , state whether its Ke Naloxone is at least 200 nM.
Response: False

Prompt: Given CN(C(=O)/C=C/c1cccc([N+](=O)[O-])c1)[C@H]1CC[C@@]2(O)[C@H]3Cc4ccc(O)c5c4[C@@]2(CCN3CC2CC2)[C@H]1O5 , state whether its Ke Naloxone is at least 200 nM.
Response: False

Prompt: Given CN(C(=O)/C=C/c1cccc([N+](=O)[O-])c1)[C@@H]1CC[C@@]2(O)[C@H]3Cc4ccc(O)c5c4[C@@]2(CCN3CC2CC2)[C@H]1O5 , state whether its Ke Naloxone is at least 200 nM.
Response: False

Prompt: Given Cc1cccc(/C=C/C(=O)N(C)[C@@H]2CC[C@@]3(O)[C@H]4Cc5ccc(O)c6c5[C@@]3(CCN4CC3CC3)[C@H]2O6)c1 , state whether its Ke Naloxone is at least 200 nM.
Response: True

Prompt: Given CN(C(=O)/C=C/c1ccc(C(F)(F)F)cc1)[C@@H]1CC[C@@]2(O)[C@H]3Cc4ccc(O)c5c4[C@@]2(CCN3CC2CC2)[C@H]1O5 , state whether its Ke Naloxone is at least 200 nM.
Response: True

Prompt: Given C=CCN1CC[C@]23c4c5ccc(O)c4O[C@H]2[C@@H](N(C)C(=O)Cc2ccc(Cl)c(Cl)c2)CC[C@@]3(O)[C@H]1C5 , state whether its Ke Naloxone is at least 200 nM.
Response: False

Prompt: Given CCCCCC(=O)N(C)[C@H]1CC[C@@]2(O)[C@H]3Cc4ccc(O)c5c4[C@@]2(CCN3CC2CC2)[C@H]1O5 , state whether its Ke Naloxone is at least 200 nM.
Response: False

Prompt: Given CC(=O)Oc1ccc2c3c1O[C@H]1[C@H](N(C)C(=O)/C=C/c4ccccc4)CC[C@@]4(O)[C@@H](C2)N(CC2CC2)CC[C@]314 , state whether its Ke Naloxone is at least 200 nM.
Response: True

Prompt: Given CN(C(=O)/C=C/C1CCCCC1)[C@@H]1CC[C@@]2(O)[C@H]3Cc4ccc(O)c5c4[C@@]2(CCN3CC2CC2)[C@H]1O5 , state whether its Ke Naloxone is at least 200 nM.
Response: True

Prompt: Given CN(C(=O)/C=C/c1cccc(F)c1)[C@H]1CC[C@@]2(O)[C@H]3Cc4ccc(O)c5c4[C@@]2(CCN3CC2CC2)[C@H]1O5 , state whether its Ke Naloxone is at least 200 nM.
Response: False

Prompt: Given CN(C(=O)Cc1ccc(Cl)c(Cl)c1)[C@H]1CC[C@@]2(O)[C@H]3Cc4ccc(O)c5c4[C@@]2(CCN3CC2CC2)[C@H]1O5 , state whether its Ke Naloxone is at least 200 nM.
Response: False

Prompt: Given CN(C(=O)/C=C/c1ccoc1)[C@H]1CC[C@@]2(O)[C@H]3Cc4ccc(O)c5c4[C@@]2(CCN3CC2CC2)[C@H]1O5 , state whether its Ke Naloxone is at least 200 nM.
Response: False

Prompt: Given CCCCOC(=O)N(C)[C@@H]1CC[C@@]2(O)[C@H]3Cc4ccc(O)c5c4[C@@]2(CCN3CC2CC2)[C@H]1O5 , state whether its Ke Naloxone is at least 200 nM.
Response: False

Prompt: Given CN(C(=O)CCc1ccccc1)[C@H]1CC[C@@]2(O)[C@H]3Cc4ccc(O)c5c4[C@@]2(CCN3CC2CC2)[C@H]1O5 , state whether its Ke Naloxone is at least 200 nM.
Response: True

Prompt: Given CN(C(=O)C#Cc1ccccc1)[C@@H]1CC[C@@]2(O)[C@H]3Cc4ccc(O)c5c4[C@@]2(CCN3CC2CC2)[C@H]1O5 , state whether its Ke Naloxone is at least 200 nM.
Response: False

Prompt: Given CN(C(=O)OCc1ccccc1)[C@H]1CC[C@@]2(O)[C@H]3Cc4ccc(O)c5c4[C@@]2(CCN3CC2CC2)[C@H]1O5 , state whether its Ke Naloxone is at least 200 nM.
Response: False

Prompt: Given CN(C(=O)/C=C/c1ccccc1)[C@@H]1CC[C@@]2(O)[C@H]3Cc4ccc(O)c5c4[C@@]2(CCN3CC2CC2)[C@H]1O5 , state whether its Ke Naloxone is at least 200 nM.
Response: False
